Just for reference, patent US4305951A is where these values come from.

# measurement notes: in vivo
# experimental conditions: mouse, in vivo
quantity measured: selectivity ratio

Find the measured selectivity ratio of Cc1cc(/C=C/c2ccccc2OCC(O)CNC(C)CCc2ccc(O)cc2)on1 (centres unmarked) and report it. 24600

Find the measured selectivity ratio of COc1ccc(CCNCC(O)COc2ccccc2/C=C/c2cc(C)no2)cc1OC (centres unmarked) and report it. 29900

###

This listing pairs molecules with measured LD50.
# measurement notes: in vivo
# experimental conditions: mouse, in vivo, ip

1) COc1ccc(CCNCC(O)COc2ccccc2/C=C/c2cc(C)no2)cc1OC (centres unmarked) [Example 4] :: 642 mg/kg

Find the measured LD50 of Cc1cc(/C=C/c2ccccc2OCC(O)CNC(C)CCc2ccc(O)cc2)on1 (centres unmarked) [Example 3] and report it. 261 mg/kg
